system: A431; assay: filipin (cholesterol) integrated intensity within LBPA endosomes, Z-score; higher = more cholesterol in LBPA endosomes; conditions: compound concentration in added solution (µM; 5 µl added to 20 µl cells): 10; 18 h
Where a name gives a salt, the structure may show the parent alone.
Measured parameter: filipin (z-score)
Please reply with the value in numeric form only.

IN: Would you mind telling me what filipin (z-score) value was observed for Cc1cc(NS(=O)(=O)c2ccc(N)cc2)no1 [Sulfamethoxazole] ?
OUT: -0.446

IN: Also COc1ccc(C(Cl)=C(c2ccc(OC)cc2)c2ccc(OC)cc2)cc1 [Chlorotrianisene] , if possible.
OUT: -0.183

IN: Also C[C@H](CS)C(=O)N1CCC[C@H]1C(=O)O [Captopril] , if possible.
OUT: -0.442

IN: Also Clc1cccc(Cl)c1NC1=NCCN1 [Clonidine hydrochloride] , if possible.
OUT: -0.436

IN: Also CC1(C)[C@H](C(=O)O)N2C(=O)C[C@H]2S1(=O)=O [Sulbactam] , if possible.
OUT: -0.375

IN: Also CN(C)CCN(Cc1ccc(Cl)cc1)c1ccccn1 [Chloropyramine hydrochloride] , if possible.
OUT: 1.05

IN: Also CCN(CC)CCNC(=O)c1cc(Cl)c(N)cc1OC [Metoclopramide monohydrochloride] , if possible.
OUT: -0.404

IN: Also Nc1ccc(S(=O)(=O)Nc2ccnn2-c2ccccc2)cc1 [Sulfaphenazole] , if possible.
OUT: -0.533

IN: Also Cc1c(N(C)CS(=O)(=O)O)c(=O)n(-c2ccccc2)n1C [Dipyrone] , if possible.
OUT: -0.539

IN: Also CC(C)CC(=O)N[C@H](C(=O)N[C@H](C(=O)N[C@@H](CC(C)C)[C@@H](O)CC(=O)N[C@@H](C)C(=O)N[C@@H](CC(C)C)[C@@H](O)CC(=O)O)C(C)C)C(C)C [Pepstatin A] , if possible.
OUT: -0.569

IN: Also CC1COc2c(N3CCN(C)CC3)c(F)cc3c(=O)c(C(=O)O)cn1c23 (stereo not drawn) [Ofloxacin] , if possible.
OUT: -0.532

IN: Also Nc1nc(=O)c2nc(CNc3ccc(C(=O)N[C@@H](CCC(=O)O)C(=O)O)cc3)cnc2[nH]1 [Folic acid] , if possible.
OUT: -0.597

IN: Also CC[C@@H]1C(=O)OC[C@@H]1Cc1cncn1C [Pilocarpine nitrate] , if possible.
OUT: -0.502

----------
tested on: HeLa MZ; experiment: filipin (cholesterol) integrated intensity within LBPA endosomes, Z-score; higher = more cholesterol in LBPA endosomes; settings: compound concentration in added solution (µM; 5 µl added to 20 µl cells): 10; 18 h
Counter-ions that a name gives are not always drawn.
Measured parameter: filipin (z-score)
Please reply with the value in numeric form only.

IN: Would you mind telling me what filipin (z-score) value was observed for `CCc1cccc(CC)c1NC(=O)CN(CC(=O)O)CC(=O)O` ?
OUT: -0.638

IN: Also Cc1ccccc1N1C(=O)c2cc(S(N)(=O)=O)c(Cl)cc2NC1C (stereo not drawn) , if possible.
OUT: -0.348

IN: Also N=C(N)NCCN1CCCCCCC1 [Guanethidine sulfate] , if possible.
OUT: -0.454

IN: Also N[C@@H](C(=O)N[C@@H]1C(=O)N2C(C(=O)O)=C(Cl)CS[C@H]12)c1ccccc1 [Cefaclor hydrate] , if possible.
OUT: -0.558

IN: Also `C[C@]12CCC(=O)C=C1CC[C@@H]1[C@@H]2C(=O)C[C@@]2(C)[C@H]1CC[C@]2(O)C(=O)CO` , if possible.
OUT: -0.486

IN: Also COc1ccc(CN(CCN(C)C)c2ccccn2)cc1 [Pyrilamine maleate] , if possible.
OUT: 0.0714

IN: Also `N[C@@H](C(=O)N[C@@H]1C(=O)N2C(C(=O)O)=C(Cl)CC[C@H]12)c1ccccc1` , if possible.
OUT: -0.73

IN: Also CCOc1ccccc1OCC1CNCCO1 (stereo not drawn) [Viloxazine hydrochloride] , if possible.
OUT: -0.261

IN: Also `CCCCOC(=O)c1ccc(N)cc1` , if possible.
OUT: -0.552

IN: Also Cc1cccc(Nc2ccncc2S(=O)(=O)NC(=O)NC(C)C)c1 [Torsemide] , if possible.
OUT: -0.394

IN: Also CC(=O)N(CC(C)C(=O)O)c1c(I)cc(I)c(N)c1I (stereo not drawn) , if possible.
OUT: -0.476

IN: Also `NC(N)=Nc1nc(CSCC/C(N)=N/S(N)(=O)=O)cs1` , if possible.
OUT: -0.623

IN: Also `C[C@H](O)C(=O)Nc1c(I)c(C(=O)NC(CO)CO)c(I)c(C(=O)NC(CO)CO)c1I` , if possible.
OUT: -0.379

IN: Also CC(NCCc1ccc(O)cc1)C(O)c1ccc(O)cc1 (stereo not drawn) [Ritodrine hydrochloride] , if possible.
OUT: -0.491

IN: Also CC(C)Cc1ccc([C@H](C)C(=O)O)cc1 [S-(+)-ibuprofen] , if possible.
OUT: -0.51

IN: Also C[N+](C)(CCOc1ccccc1)Cc1ccccc1.O=C([O-])c1cc2ccccc2cc1O [Bephenium hydroxynaphthoate] , if possible.
OUT: -0.371

IN: Also COc1cc([S+](C)[O-])ccc1-c1nc2cccnc2[nH]1 (stereo not drawn) , if possible.
OUT: -0.399

IN: Also Cc1onc(-c2c(Cl)cccc2Cl)c1C(=O)N[C@@H]1C(=O)N2[C@@H]1SC(C)(C)[C@@H]2C(=O)O [Dicloxacillin sodium salt hydrate] , if possible.
OUT: -0.582

Ref: the supplement of paper PMC6607015
